# target: AMPA receptor (human GluR1 flip/stargazin expressed in CHO-K1 cells) (Homo sapiens)
# Construct: expressed in transfected cells; host or cells: CHO-K1
# experimentalProtocol: AMPA receptor function enhancing activity using calcium influx as index
# Format: cell-based
# testContext: change in fluorescence level in 3 min, 100% = 3 mM glutamic acid + 300 μM cyclothiazide, 0% = 3 mM glutamic acid only
parameterMeasured: activity (%)

CCS(=O)(=O)N[C@H]1CCOC[C@@H]1COc1ccc(C(C)=O)cc1F (relative stereo)    85
CC(C)S(=O)(=O)N[C@H]1CCCC[C@@H]1COc1ccc(C2CC2)cc1 (relative stereo)    82
Cc1cnc(-c2ccc(OC[C@H]3OCCC[C@@H]3NS(=O)(=O)C3CC3)cc2)s1 (racemic)    74
CCS(=O)(=O)N[C@H]1CCOC[C@@H]1COc1ccc(-c2ccc(C(F)(F)F)cn2)cc1 (racemic)    70
O=S(=O)(N[C@H]1COCC[C@@H]1COc1ccc(-c2ccc(F)cn2)cc1F)C1CC1    104
CS(=O)(=O)N[C@H]1CCC(F)(F)C[C@@H]1COc1ccc(-c2ccc(C#N)cn2)cc1 [Example 268]    101
CCS(=O)(=O)N[C@H]1CCOC[C@@H]1COc1ccc(C(C)=O)cc1 (relative stereo)    88

---

# target: AMPA receptor (human GluR1 flip/stargazin expressed in CHO-K1 cells) (Homo sapiens, UniProt P42261)
# Construct: expressed in transfected cells; host or cells: CHO-K1
# Sequence (P42261 19-906 isoform P42261-2 limits assumed): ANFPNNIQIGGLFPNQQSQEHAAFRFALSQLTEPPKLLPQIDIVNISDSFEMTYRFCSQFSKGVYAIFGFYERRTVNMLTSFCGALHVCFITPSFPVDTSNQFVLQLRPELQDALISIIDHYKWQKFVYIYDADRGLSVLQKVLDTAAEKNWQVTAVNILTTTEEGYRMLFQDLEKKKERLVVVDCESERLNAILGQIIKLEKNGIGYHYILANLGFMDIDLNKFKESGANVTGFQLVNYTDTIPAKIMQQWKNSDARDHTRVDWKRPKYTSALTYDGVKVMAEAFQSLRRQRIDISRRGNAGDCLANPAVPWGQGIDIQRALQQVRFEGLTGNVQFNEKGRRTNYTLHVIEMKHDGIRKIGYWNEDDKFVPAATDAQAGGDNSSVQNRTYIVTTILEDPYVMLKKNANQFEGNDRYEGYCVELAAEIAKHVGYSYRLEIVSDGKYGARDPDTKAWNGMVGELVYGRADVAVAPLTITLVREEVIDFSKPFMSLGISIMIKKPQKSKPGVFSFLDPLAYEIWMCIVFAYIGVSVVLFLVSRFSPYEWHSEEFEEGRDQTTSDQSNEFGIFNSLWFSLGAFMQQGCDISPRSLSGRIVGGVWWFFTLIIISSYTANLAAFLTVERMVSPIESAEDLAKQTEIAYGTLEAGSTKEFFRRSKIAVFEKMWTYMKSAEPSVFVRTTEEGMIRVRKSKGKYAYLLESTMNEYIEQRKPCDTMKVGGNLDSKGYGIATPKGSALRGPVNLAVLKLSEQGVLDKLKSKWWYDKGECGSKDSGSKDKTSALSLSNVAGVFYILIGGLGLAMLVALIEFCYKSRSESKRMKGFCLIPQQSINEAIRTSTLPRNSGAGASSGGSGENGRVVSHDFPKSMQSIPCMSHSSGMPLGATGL
# Sequence (Q9Y698 whole entry partner): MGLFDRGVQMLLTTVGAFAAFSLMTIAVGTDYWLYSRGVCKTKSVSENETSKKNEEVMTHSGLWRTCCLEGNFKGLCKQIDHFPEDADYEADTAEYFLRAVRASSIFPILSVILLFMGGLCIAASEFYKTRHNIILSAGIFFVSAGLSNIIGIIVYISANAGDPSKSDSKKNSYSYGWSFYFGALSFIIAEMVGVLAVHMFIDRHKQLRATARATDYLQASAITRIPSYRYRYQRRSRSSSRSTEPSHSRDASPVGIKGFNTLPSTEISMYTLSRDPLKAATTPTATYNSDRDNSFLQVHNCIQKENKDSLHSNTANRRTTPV
# experimentalProtocol: AMPA receptor function enhancing activity using calcium influx as index
# Type: cell-based
# testContext: change in fluorescence level in 3 min, 100% = 3 mM glutamic acid + 300 μM cyclothiazide, 0% = 3 mM glutamic acid only
Structures can show the parent of a compound that is named as a salt.
parameterMeasured: activity (%)

CCS(=O)(=O)N[C@H]1CCOC[C@@H]1COc1ccc(-n2cc(Cl)cn2)cc1F [Example 454]    89
O=S(=O)(N[C@H]1CCOC[C@@H]1COc1ccc(-c2ncc(Cl)cc2F)cc1)C1CC1 (racemic) [Example 262]    89
CS(=O)(=O)N[C@H]1COCC[C@@H]1COc1ccc(-n2cc(Cl)cn2)cc1F [Example 207]    74
CN(C)S(=O)(=O)N[C@H]1CCOC[C@@H]1COc1ccc(-n2cc(Cl)cn2)cc1 (racemic) [Example 279]    79
CCS(=O)(=O)N[C@H]1CCOC[C@@H]1COc1ccc(-c2ccccn2)cc1 (relative stereo) [Example 137]    91
CS(=O)(=O)N[C@H]1CCCO[C@@H]1COc1ccc(-c2ccc(C#N)cn2)cc1 (racemic) [Example 164]    76
CS(=O)(=O)N[C@H]1CCOC[C@@H]1COc1ccc(-n2cccn2)c(F)c1F [Example 425, hydrochloride]    96
Cn1cccc(-c2ccc(OC[C@H]3CSCC[C@@H]3NS(C)(=O)=O)cc2)c1=O [Example 518]    95
CCS(=O)(=O)N[C@H]1CCOC[C@@H]1COc1ccc(-c2ccc(C#N)cn2)cc1 [Example 297]    95

---

# target: AMPA receptor (human GluR1 flip/stargazin expressed in CHO-K1 cells) (Homo sapiens)
# Construct: expressed in transfected cells; host or cells: CHO-K1
# experimentalProtocol: AMPA receptor function enhancing activity using calcium influx as index
# Format: cell-based
# testContext: change in fluorescence level in 3 min, 100% = 3 mM glutamic acid + 300 μM cyclothiazide, 0% = 3 mM glutamic acid only
# Source text: Human GluR1 flip cDNA was amplified by PCR using forward primer […] (SEQ ID NO: 1) and reverse primer […] (SEQ ID NO: 2) artificially synthesized using human brain-derived cDNA (BD Bio science) as a template. The amplified product was digested with restriction enzymes EcoRI, NotI (TAKARA SHUZO CO. LTD.), and incorporated into the same site of pcDNA3.1(+) (Invitrogen) to construct pcDNA3.1(+)/human GluR1 flip gene. Human stargazin cDNA was amplified by PCR using forward primer […] […]
parameterMeasured: activity (%)

CCS(=O)(=O)N[C@H]1CCOC[C@@H]1COc1ccc(-n2cccn2)cc1 (single isomer, unassigned) [Example 6]    82
CCS(=O)(=O)N[C@H]1CCCO[C@@H]1COc1ccc(-c2ncc(C)s2)cc1 (racemic) [Example 181]    77
CCS(=O)(=O)N[C@H]1CCCC[C@@H]1COc1ccc(C(C)C)cc1 [Example 13]    81

Reference for the values: patent US9527807B2
